- tested_target: T1, Human CD137 ECD (human)
- T1 construct: also called 4-1BB
- T1 sequence (chain, as listed by the source limits assumed): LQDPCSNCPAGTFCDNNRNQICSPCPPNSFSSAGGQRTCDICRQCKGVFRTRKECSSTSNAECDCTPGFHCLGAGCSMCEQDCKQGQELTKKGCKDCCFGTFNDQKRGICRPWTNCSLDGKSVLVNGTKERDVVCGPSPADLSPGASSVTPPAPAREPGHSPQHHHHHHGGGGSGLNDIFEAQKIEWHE
- protocol_details: single mutant vs template dBBDu183H
For each record, write down the corresponding fold change of affinity.
Give bare numbers, in fold.

Prompt line: # get_value(readout='fold change of affinity', item= H183/L072 VH T28H (antibody, name in Kabat numbering, V domains shown) VH: QVQLVESGGGLVQPGRSLRLSCAASGFHFSNAWMHWVRQAPGKGLEWVAQIKDKGNAYAAYYAPSVKGRFTISRDDSKNSIYLQMNSLKTEDTAVYYCHYVHYASASTVLPAFGVDAWGQGTTVTVSS VL: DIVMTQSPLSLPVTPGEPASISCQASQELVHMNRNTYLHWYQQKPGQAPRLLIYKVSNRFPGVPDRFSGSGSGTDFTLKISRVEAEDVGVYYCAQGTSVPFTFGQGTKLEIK )
Response line: 1.1

Prompt line: Data request, read-out fold change of affinity, for H183/L072 VH D101I (antibody, name in Kabat numbering, V domains shown) VH: QVQLVESGGGLVQPGRSLRLSCAASGFTFSNAWMHWVRQAPGKGLEWVAQIKDKGNAYAAYYAPSVKGRFTISRDDSKNSIYLQMNSLKTEDTAVYYCHYVHYASASTVLPAFGVIAWGQGTTVTVSS VL: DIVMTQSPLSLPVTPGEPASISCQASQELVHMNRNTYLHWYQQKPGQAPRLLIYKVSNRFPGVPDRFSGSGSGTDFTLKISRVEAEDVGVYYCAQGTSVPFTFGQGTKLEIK
Response line: 0

Now look at this entry.
Prompt line: Can you share its fold change of affinity? I mean this binder: H183/L072 VH A32Q (antibody, name in Kabat numbering, V domains shown) VH: QVQLVESGGGLVQPGRSLRLSCAASGFTFSNQWMHWVRQAPGKGLEWVAQIKDKGNAYAAYYAPSVKGRFTISRDDSKNSIYLQMNSLKTEDTAVYYCHYVHYASASTVLPAFGVDAWGQGTTVTVSS VL: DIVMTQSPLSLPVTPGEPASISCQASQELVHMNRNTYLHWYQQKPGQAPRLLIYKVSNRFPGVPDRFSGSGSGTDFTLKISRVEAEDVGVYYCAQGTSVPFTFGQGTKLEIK
Response line: 1.6
